- System: CAMK2B
- conditions: concentration: 1 μM, replicates: in singlicate; n = 1;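 also: KINOMEscan kinase panel screen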
measurement-type: %Inh (%)
Please respond with the number in % and leave the unit unwritten.

Examples with answers:
QUERY: I would be grateful if you could share the reported %Inh for Clc1cc(Nc2ncnc3cc[nH]c23)ccc1OCc1ccccn1 .
RESULT: 0

QUERY: Could you share which %Inh value was measured for Cc1cccc(-c2nc(Nc3ccc4[nH]nnc4c3)c3ccccc3n2)n1 [GW867587] ?
RESULT: 8

QUERY: What %Inh value was documented for this compound, CN1CCC(n2cnc(-c3ccc(F)cc3)c2-c2ccnc(NC3CCNCC3)n2)CC1 [SB-229482] ?
RESULT: 0

Next up:
QUERY: Give the measured %Inh of CC(C)(C)OC(=O)NC1CCCN(c2cc(-c3ccc4c(N)n[nH]c4c3)nc(N)n2)C1 (stereo not shown) [GSK2286096] .
RESULT: 0

###

- Test system: YSK4
- Construct: gene MAP3K19
- conditions: concentration: 1 μM, replicates: in singlicate; n = 1
Recorded %Inh, one value per entry.
Respond numerically; units are % and should not be typed.

These solved cases illustrate the format of a correct answer.
QUERY: Suppose we examine the compound Oc1ccc2ncnc(Nc3ccc(OCc4ccccc4)cc3)c2c1 ; what %Inh value has been reported?
RESULT: 7

QUERY: Value lookup for %Inh; key = COc1ccc(-c2oc3ncnc(N)c3c2-c2ccc(OC)cc2)cc1
RESULT: 57

QUERY: // returns reported %Inh for input COc1ccc(Nc2nccc(N3CCC(NC(=O)c4cccc(NC(C)=O)c4)C3)n2)cc1 (centres unmarked)
RESULT: 5

QUERY: Suppose we examine the compound Cl.O=S(=O)(c1cccc(F)c1)c1ccc(Nc2ncnc3cc(Br)sc23)cc1Cl ; what %Inh value has been reported?
RESULT: 0

Next:
QUERY: Can you look up the measured %Inh of FC(F)(F)c1ccc(-c2cc(-c3c[nH]nc3-c3ccccn3)ccn2)cc1 for me?
RESULT: 28

###

- Tested on: PRKCI
- conditions: concentration: 1 μM, replicates: in singlicate; n = 1
measurement-type: %Inh

Consider the reported %Inh for these compounds:
QUERY: So what does the record say about %Inh for FC(F)(F)c1ccc(-c2cc(-c3c[nH]nc3-c3ccccn3)ccn2)cc1 ?
RESULT: 23%

QUERY: # get_value(readout='%Inh', item= Fc1cccc(COc2ccc(Nc3ncnc4cc[nH]c34)cc2Cl)c1 )
RESULT: 12%

QUERY: Which %Inh is reported for this compound? Nc1nccc2scc(-c3ccc4c(c3)CCN4C(=O)Cc3cc(F)ccc3F)c12
RESULT: 1%

Next:
QUERY: Need %Inh, item CN1c2ccc(-c3ccc(C(=O)NCCO)cc3)cc2-c2[nH]ncc2S1(=O)=O
RESULT: 0%

QUERY: Need %Inh of FC(F)(F)c1ccc(-c2nn3ncccc3c2-c2ccnc(Nc3cccc(C(F)(F)F)c3)n2)cc1 , thanks.
RESULT: 30%

QUERY: Can you share its %Inh? I mean this compound: O=C(CCO)NCCn1ccc2ncnc(Nc3ccc(Oc4cccc(C(F)(F)F)c4)c(Cl)c3)c21
RESULT: 0%

QUERY: I have this compound here, CCn1c(-c2ccncc2)nc2cnccc21 , and I need its recorded %Inh.
RESULT: 46%

QUERY: Report %Inh for CC(C)(C)OC(=O)NC1CCCN(c2cc(-c3ccc4c(N)n[nH]c4c3)nc(N)n2)C1 (stereo not drawn) please.
RESULT: 0%

QUERY: Given CS(=O)(=O)CCNCc1nc(-c2ccc3ncnc(Nc4ccc(OCc5cccc(F)c5)c(Cl)c4)c3c2)cs1.Cl , state its recorded %Inh.
RESULT: 13%

QUERY: %Inh lookup needed for Cn1cc(-c2ccc3c(c2)CCN3C(=O)Cc2cccc(C(F)(F)F)c2)c2c(N)ncnc21 , thanks.
RESULT: 15%

QUERY: Given COc1ccc(NC(=O)c2ccc(-c3cc(-c4nnc(C)o4)ccc3C)cc2)cc1 , state its recorded %Inh.
RESULT: 0%

QUERY: Using the record for OCCOCCn1ccc2ncnc(Nc3ccc(Oc4cccc(Cl)c4)c(Cl)c3)c21 , report its %Inh.
RESULT: 0%
